# experimental.system: UniProtKB Q865E1
Counter-ions that a name gives are not always drawn.
For each record, check the reported Ki: if it is below 70 nM write satisfied, else write not satisfied.

molecule="CC1CCCN1C1CC[C@H](c2ccc(NC(=O)OCc3ccccc3)cc2)C1 (stereo partly drawn) [Intermediate (10)]" experimental_system="UniProtKB Q865E1" class_assignment=satisfied
molecule="O=C1N(c2ccc([C@H]3CC[C@H](N4CCC4)CC3)cc2F)CCC12CCNCC2 [Example 19, hydrochloride]" experimental_system="UniProtKB Q865E1" class_assignment="not satisfied"
molecule="C[C@H]1CCCN1C1CC[C@H](c2ccc(NS(=O)(=O)c3ccc(F)cc3)cc2)C1 (stereo partly drawn)" experimental_system="UniProtKB Q865E1" class_assignment=satisfied
molecule="C[C@H]1CCCN1C1CC[C@H](c2ccc(NC(=O)c3ccc(Cl)cc3)cc2)C1 (stereo partly drawn)" experimental_system="UniProtKB Q865E1" class_assignment=satisfied
molecule="C[C@@H]1CCCN1[C@H]1CC[C@H](c2ccc(N3CCC4(CCNCC4)C3=O)c(F)c2)CC1 [Example 18, hydrochloride]" experimental_system="UniProtKB Q865E1" class_assignment=satisfied
molecule="CC1CCCN1C1CC[C@H](c2ccc(N3CCCC4(CCCC4)C3=O)cc2)C1 (stereo partly drawn)" experimental_system="UniProtKB Q865E1" class_assignment=satisfied

====

# experimental.system: rhesus (Macacca Mulatta) H3 receptor (Macaca mulatta)
# Sequence (Q865E1 1-445): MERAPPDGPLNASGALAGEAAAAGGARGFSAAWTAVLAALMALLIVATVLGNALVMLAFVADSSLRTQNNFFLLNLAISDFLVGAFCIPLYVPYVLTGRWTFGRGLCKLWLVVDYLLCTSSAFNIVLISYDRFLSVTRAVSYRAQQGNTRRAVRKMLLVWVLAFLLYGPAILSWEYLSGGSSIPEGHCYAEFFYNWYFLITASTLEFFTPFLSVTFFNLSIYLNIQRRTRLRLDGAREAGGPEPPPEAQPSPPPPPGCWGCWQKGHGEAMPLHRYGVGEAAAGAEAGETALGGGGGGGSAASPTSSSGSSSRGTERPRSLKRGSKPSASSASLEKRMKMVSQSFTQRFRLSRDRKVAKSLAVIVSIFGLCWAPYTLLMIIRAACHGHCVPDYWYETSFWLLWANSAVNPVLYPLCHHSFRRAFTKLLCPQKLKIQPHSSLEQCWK
Counter-ions that a name gives are not always drawn.
property: log10(Ki) (log10 of the value in µM)

compound="Cc1ccc(C(=O)Nc2ccc([C@H]3CCC(N4CCC[C@@H]4C)C3)cc2)cc1 (stereo partly drawn)" quantitative_readout=-1.01
compound="C[C@H]1CCCN1[C@H]1CC[C@H](c2ccc(N3CCC4(CCNCC4)C3=O)c(F)c2)CC1 [Example 17, hydrochloride]" quantitative_readout=-1.07
compound=C[C@H]1CCCCN1[C@H]1CC[C@H](c2ccc(N3CCC4(CCOCC4)C3=O)cc2)CC1 quantitative_readout=-1.40
compound=C[C@H]1CCCN1[C@H]1CC[C@H](c2ccc(N3CCC4(CCOCC4)C3=O)cc2)CC1 quantitative_readout=-2.21
compound=CC(C)(C)OC(=O)N1CCC2(CC1)CCN(c1ccc([C@H]3CC[C@H](N4CCCC4)CC3)cc1F)C2=O quantitative_readout=-0.42
compound="CC1CCCN1C1CC[C@H](c2ccc(N3CCC4(CCN(C(=O)OC(C)(C)C)CC4)C3=O)cc2)C1 (stereo partly drawn)" quantitative_readout=-1.57
compound=C[C@@H]1CCCN1[C@H]1CC[C@H](c2ccc(N3CCC4(CCOCC4)C3=O)cc2)CC1 quantitative_readout=-1.45
compound="CC1CCCN1C1CC[C@H](c2ccc(N3CCCC4(CCN(C(=O)OC(C)(C)C)CC4)C3=O)cc2)C1 (stereo partly drawn)" quantitative_readout=-1.75
compound="C[C@H]1CCCN1C1CC=C(c2ccc(NC(=O)OCc3ccccc3)c(F)c2)CC1 (stereo partly drawn)" quantitative_readout=-2.16
compound=CC(C)(C)OC(=O)N1CCC2(CC1)CCN(c1ccc([C@H]3CC[C@H](N4CCC4)CC3)cc1F)C2=O quantitative_readout=-0.66
compound="C[C@H]1CCCN1C1CC[C@H](c2ccc(NC(=O)OCc3ccccc3)cc2)C1 (mixture of isomers) [Intermediate (13)]" quantitative_readout=-1.43
compound=O=C1N(c2ccc([C@H]3CC[C@H](N4CCCC4)CC3)cc2)CCC12CCOCC2 quantitative_readout=-0.95
compound="O=C1N(c2ccc([C@H]3CC[C@H](N4CCCC4)CC3)cc2F)CCC12CCNCC2 [Example 20, hydrochloride]" quantitative_readout=-0.86
compound="C[C@H]1CCCN1C1CC[C@H](c2ccc(N3CCC4(CCOCC4)C3=O)cc2)C1 (stereo partly drawn)" quantitative_readout=-1.92
compound="CC1CCCN1C1CC[C@H](c2ccc(N3CCCC4(CCNCC4)C3=O)cc2)C1 (stereo partly drawn) [Example 8, hydrochloride]" quantitative_readout=-2.22

Data provenance is patent US9453023B2.
